Each entry below carries its recorded clearance.
# assay-summary: Total clearance in monkey at 0.32 mg/kg, iv by cassette assay
# Assay type: ADME, organism-based, Macaca mulatta
# Parameters: dose 0.32 mg/kg, route intravenous
# assay-setup: rhesus monkey, in vivo
Report as: number unit

Ask | Entry "CC(C)Sc1cc(-c2ccc(CCNC[C@H](O)c3ccccc3)cc2)ccc1C(=O)NS(C)(=O)=O.Cl" has what clearance?
Reply | 9.2 mL/min/kg

Ask | Entry "CS(=O)(=O)NC(=O)c1ccc(-c2ccc(CCNC[C@H](O)c3cnccc3N)cc2)cc1OC1CCCCC1.Cl.Cl" has what clearance?
Reply | 52 mL/min/kg

Ask | Entry "CC(C)Nc1cc(-c2ccc(CCNC[C@H](O)c3ccccc3)cc2)ccc1C(=O)NS(C)(=O)=O.Cl.Cl" has what clearance?
Reply | 25.9 mL/min/kg

Ask | Entry "CS(=O)(=O)NC(=O)c1ccc(-c2ccc(CCNC[C@H](O)c3cccnc3)cc2)cc1OC1CCCCC1.Cl.Cl" has what clearance?
Reply | 7.5 mL/min/kg
